Test system: T-47D breast
Experiment: NCI-60 one-dose screen, 48 h
Conditions: 10 µM unless noted
Compounds without any hit were thinned out: in the full panel of roughly 83,000, 20% have a hit. The source made the active and inactive calls. The calls were made as follows: active = growth percent below 10; inactive = the rest.
Select the correct class. Options are active, inactive and nothing else.

Consider the following illustrative entries.
compound | group
COc1cnc2c(c1)C(=O)c1c-2n(CCCNC(C)C)c(=O)c2cc(Cl)ccc12 | active
COc1ccc(-c2cnnn2-c2nonc2-n2cccc2)cc1 | inactive
ClCc1c(Cl)c(Cl)c(Cl)c(CCl)c1Cl | active
CCN(CC)CCCCCCCCNc1c2ccc(Cl)cc2nc2ccc(OC)cc12 | active
CCN(CC)c1ccc(/C=N/NC(=O)C[N+](C)(C)C)cc1 | inactive
CC(C)(C)OC(=O)N1CCCN(CCNc2nccc(-c3c(-c4cccc(O)c4)nc4sccn34)n2)S1(=O)=O | inactive

Qu. How was "COc1cccc(-c2nc3sccn3c2-c2ccnc(NCCN3CCCNS3(=O)=O)n2)c1" classified in this test?
Ans. inactive

Qu. Field: outcome | Entry: COC(=O)OC1C(O[C@H]2C[C@H]3[C@@H]4CC=C5C[C@@H](O)CC[C@]5(C)[C@H]4CC[C@]3(C)[C@H]2[C@H](C)C(=O)CCC(C)C)OCC(O)C1OC1OCC(O)C(O)C1OC(=O)c1ccc(OC)cc1 (stereo partly drawn)
Ans. active

---

Tested on: MDA-MB-231 breast
Assay: NCI-60 one-dose screen, 48 h (100 = growth as untreated, 0 = no growth, -100 = all killed)
Conditions: 10 µM unless noted
The panel holds about 83,000 compounds, 20% with a hit somewhere; the sample as a whole holds those more often.
growth strictly under 90% means yes; at 90% or over means no.

molecule | group
CO[C@H](C(=O)[C@@H](O)[C@@H](C)O)[C@@H]1Cc2cc3cc(O[C@H]4C[C@@H](O[C@H]5C[C@@H](O)[C@H](O)C(C)O5)[C@H](O)C(C)O4)c(C)c(O)c3c(O)c2C(=O)[C@H]1O[C@H]1C[C@@H](O[C@H]2C[C@@H](O[C@H]3C[C@](C)(O)C(=O)C(C)O3)[C@@H](O)C(C)O2)[C@H](O)C(C)O1 (stereo not given in full) | yes
CC[C@H](C)[C@H](N)C(=O)O | no
COc1cc(C2CC(c3ccc(Cl)cc3)=NN2C(C)=O)ccc1Oc1nc2c(c(=O)n(C)c(=O)n2C)n1C (stereo not given) | yes

Could you now look at the following molecule, please?
Qu. Take the molecule "CS(=O)(=O)c1ccc(C(=O)Nc2ccc(Cl)c(-c3ccccn3)c2)c(Cl)c1" and say whether its growth is less than 90%.
Ans. yes

---

Tested on: 786-0 renal
Assay: NCI-60 one-dose screen, 48 h
Settings: 10 µM unless noted
This is part of a sample that, as a whole, favours compounds with a hit. Of some 83,000 tested, about 20% had one in any assay. The source made the active and inactive calls. The calls were made as follows: active = growth percent below 10; inactive = the rest.
Use one of these outcomes when replying: active, inactive

compound | group
COc1cc(C2CC(c3ccc(Cl)cc3)=NN2C(C)=O)ccc1Oc1ccnc2cc(Cl)ccc12 (stereo not drawn) | inactive
CS(=O)(=O)c1ccc(C(=O)N/N=C/c2ccccc2O)cc1 | inactive
CCCCCCCCCCCCNC(=O)N[C@H](C(=O)N[C@H]1/C=C/CCNC(=O)/C=C/[C@H](C)NC1=O)C(C)C | active

Alright, here's another compound for you.
Qu. Called result for "NS(=O)(=O)c1ccc(CCn2c(SCC(=O)N/N=C/c3ccccc3O)nc3ccccc3c2=O)cc1"
Ans. inactive
